- ASSAY_SYSTEM: aldosterone synthase (CYP11B2) (Macaca fascicularis, UniProt A0A2K5UPL9)
- Sequence (A0A2K5UPL9 1-503): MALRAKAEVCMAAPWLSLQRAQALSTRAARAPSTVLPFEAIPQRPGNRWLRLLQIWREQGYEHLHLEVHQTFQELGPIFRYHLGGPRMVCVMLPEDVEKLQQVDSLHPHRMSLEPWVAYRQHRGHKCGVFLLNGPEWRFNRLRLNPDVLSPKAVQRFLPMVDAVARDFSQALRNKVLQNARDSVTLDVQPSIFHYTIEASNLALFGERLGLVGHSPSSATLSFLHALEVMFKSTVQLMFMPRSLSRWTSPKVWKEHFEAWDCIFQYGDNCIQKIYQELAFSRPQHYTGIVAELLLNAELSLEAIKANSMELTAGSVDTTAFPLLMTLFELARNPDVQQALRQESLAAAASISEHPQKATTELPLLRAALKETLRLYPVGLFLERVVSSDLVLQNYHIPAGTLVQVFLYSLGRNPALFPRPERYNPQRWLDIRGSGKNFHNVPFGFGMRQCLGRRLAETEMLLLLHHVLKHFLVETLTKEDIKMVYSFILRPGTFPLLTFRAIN
- EXPERIMENTAL_DETAILS: Inhibition of aldosterone synthase (cynomolgus adrenal mitochondria, aldosterone by mass spectrometry)
- Assay type: biochemical, cynomolgus monkey
- RUN_CONDITIONS: 2 μM corticosterone substrate, 50 units CYP11B2, 90 min, 37° C.; read-out: Aldosterone Inhibition IC50
ENDPOINT_NAME: IC50 (nM)
Provide only the numeric value, understood in nM.

> print(dat)
                                   molecule  display.unit  test.result
1  N#Cc1ccc(-n2cnc3c2C(=O)CC2(CCC2)C3)cc1Cl [C-ACG]            nM           12
2  CC(=O)N1CCCc2cc(-n3cnc4c3C(=O)CCC4)ccc21 [C-AAF]            nM           37
3  COC(=O)c1ccc(-n2cnc3c2C(=O)CC(C)(C)C3)cc1 [C-ABW]            nM          310

Request the reported IC50 associated with CN(C)c1ccc(-n2cnc3c2C(=O)CC(C)(C)C3)cc1 [C-ABO]
130

----------
# IC50 annotations
- ASSAY_SYSTEM: cortisol synthase (CYP11B1) (Macaca fascicularis)
- EXPERIMENTAL_DETAILS: Inhibition of cortisol synthesis (cynomolgus adrenal mitochondria, cortisol by mass spectrometry)
- Type: biochemical, cynomolgus monkey
- RUN_CONDITIONS: 11-deoxycortisol substrate, 150 units CYP11B1; read-out: Cortisol Inhibition IC50
Provide only the numeric value, understood in µM.

Example results:
> print(dat)
                                   molecule  test.result
1  CC1(C)CC(=O)c2c(ncn2[C@H]2CC[C@@H](C#N)CC2)C1          7.9
2  COc1ccc2c(c1)CCC(n1cnc3c1C(=O)CC(C)(C)C3)C2 (stereo not drawn)           11

Next molecule, IC50 to be filled in.
I'm curious: which IC50 was measured for N#C[C@H]1CC[C@H](n2cnc3c2C(=O)CCC3)CC1 tested on cortisol synthase (CYP11B1) (Macaca fascicularis)?
13

----------
# IC50 annotations
- ASSAY_SYSTEM: aldosterone synthase (CYP11B2) (Macaca fascicularis)
- EXPERIMENTAL_DETAILS: Inhibition of aldosterone synthase (cynomolgus adrenal mitochondria, aldosterone by mass spectrometry)
- Format: biochemical, cynomolgus monkey
- RUN_CONDITIONS: 2 μM corticosterone substrate, 50 units CYP11B2, 90 min, 37° C.; read-out: Aldosterone Inhibition IC50
Provide only the numeric value, understood in nM.

Request the reported IC50 associated with C[C@H]1Cc2cc(-n3cnc4c3C(=O)CCC4)ccc2O1 (stereo in doubt)
70

Now give it for CC1(C)CC(=O)c2c(ncn2-c2cccc(C(F)(F)F)c2)C1 too.
73

Now give it for CC1(C)CC(=O)c2c(ncn2Cc2ccc(F)cc2)C1 too.
56

Now give it for CC1(C)CC(=O)c2c(ncn2Cc2ccc3[nH]ncc3c2)C1 too.
110

Now give it for CN1C(=O)CCc2cc(-n3cnc4c3C(=O)CC3(CC3)C4)ccc21 too.
16

Now give it for CC1(C)CC(=O)c2c(ncn2C2Cc3ccccc3C2)C1 too.
47

Now give it for CC1(C)CC(=O)c2c(ncn2Cc2ccc(S(C)(=O)=O)cc2)C1 too.
92

Now give it for O=C1CC2(CCOCC2)Cc2ncn(-c3ccc(Cl)cc3)c21 too.
69

Now give it for N#Cc1ccc(-n2cnc3c2C(=O)CC(CO)C3)cc1Cl (stereo not drawn) too.
18
